- Tested on: U2OS
- assay.protocol: Multiplex assay against U2OS
- Format: toxicity, cell-based
- test.settings: human, 48 h, 1 µM, compound concentration 1 uM, replicate 2
This section presents compounds with their documented Population Hoechst High Intensity Objects (%) values.
Write down the numeric answer in % and omit the unit.

# compound, units.text, value.measured
records = [
    ("COC(=O)C1=C(C)NC(C)=C(C(=O)OCCCN2CCC(c3ccccc3)(c3ccccc3)CC2)[C@H]1c1cccc([N+](=O)[O-])c1 [NIGULDIPINE]", "%", 5),
    ("CC(C)c1noc(N2CCC(COc3ccc(-c4ccc(S(C)(=O)=O)cc4)nc3)CC2)n1 [GSK-1292263]", "%", 0),
    ("COc1cc2ncn(-c3cc(OCc4ccccc4C(F)(F)F)c(C(N)=O)s3)c2cc1OC [GW843682X]", "%", 6),
    ("O=c1cc(N2CCOCC2)oc2c(-c3cccc4c3sc3ccccc34)cccc12", "%", 4),
    ("COc1cc(Nc2nccc(-c3cnn4nc(OC)ccc34)n2)cc(C(F)(F)F)c1", "%", 7),
    ("Cc1cccc(CN2CCN(C(c3ccccc3)c3ccc(Cl)cc3)CC2)c1.Cl.Cl (configuration not stated)", "%", 7),
    ("COc1ccc(-c2ccc3ncc4c(c3c2)n(-c2ccc(N3CCNCC3)c(C(F)(F)F)c2)c(=O)n4C)cn1.O=C(O)/C=C\\C(=O)O [BGT-226]", "%", 34),
    ("Cc1ccc2c(c1)c1c(n2CCc2ccc(C)nc2)CCN(C)C1 [LATREPIRDINE]", "%", 10),
    ("Cl.O=C(O)c1cc(-c2ccc(C3CCNCC3)cc2)c2ccc(-c3ccc(C(F)(F)F)cc3)cc2c1", "%", 2),
    ("CCc1nn(CCCN2CCN(c3cccc(Cl)c3)CC2)c(=O)n1CCOc1ccccc1.Cl [NEFAZODONE HYDROCHLORIDE]", "%", 1),
]

// C[C@]12CC[C@@H]3c4ccc(O)cc4CC[C@H]3[C@@H]1CC[C@@H]2O [ESTRADIOL] : Population Hoechst High Intensity Objects (%) value = 2

Population Hoechst High Intensity Objects (%) in this record for CC(C)Oc1ccccc1C(=O)Nc1ccccc1C(=O)Nc1cccc(S(=O)(=O)C(F)(F)F)c1 : 7

Just so you know, measured Population Hoechst High Intensity Objects (%) for COc1ccccc1CN[C@H]1C2CCN(CC2)[C@H]1C(c1ccccc1)c1ccccc1 [CP-96345] came out at 0

Lab note: Cc1c[nH]c2nccc(Oc3c(F)cc(Nc4cc(Cl)nc(N)n4)cc3F)c12 [BAY-549] gave Population Hoechst High Intensity Objects (%) of 0

// Population Hoechst High Intensity Objects (%) value for O=C(c1cc2c(cc1F)OC(c1ccc(F)cc1)(c1ccc(Cl)cc1Cl)O2)N1CCOCC1 (configuration not stated) : 4

Recorded result, CNC(=O)Nc1ccc(-c2nc(N3CC4CCC(C3)O4)c3cnn(C4CCC5(CC4)OCCO5)c3n2)cc1 , Population Hoechst High Intensity Objects (%): 14

Quick note, Population Hoechst High Intensity Objects (%) for CC(C)OC(=O)N1CCC(Oc2ncnc3c2cnn3-c2ccc(S(C)(=O)=O)cc2F)CC1 landed at 2

Entry source: ChEMBL document CHEMBL4689842
